- STUDY SYSTEM: Broad substrate specificity ATP-binding cassette transporter ABCG2 (Homo sapiens, UniProt Q9UNQ0)
- Sequence (Q9UNQ0 whole entry): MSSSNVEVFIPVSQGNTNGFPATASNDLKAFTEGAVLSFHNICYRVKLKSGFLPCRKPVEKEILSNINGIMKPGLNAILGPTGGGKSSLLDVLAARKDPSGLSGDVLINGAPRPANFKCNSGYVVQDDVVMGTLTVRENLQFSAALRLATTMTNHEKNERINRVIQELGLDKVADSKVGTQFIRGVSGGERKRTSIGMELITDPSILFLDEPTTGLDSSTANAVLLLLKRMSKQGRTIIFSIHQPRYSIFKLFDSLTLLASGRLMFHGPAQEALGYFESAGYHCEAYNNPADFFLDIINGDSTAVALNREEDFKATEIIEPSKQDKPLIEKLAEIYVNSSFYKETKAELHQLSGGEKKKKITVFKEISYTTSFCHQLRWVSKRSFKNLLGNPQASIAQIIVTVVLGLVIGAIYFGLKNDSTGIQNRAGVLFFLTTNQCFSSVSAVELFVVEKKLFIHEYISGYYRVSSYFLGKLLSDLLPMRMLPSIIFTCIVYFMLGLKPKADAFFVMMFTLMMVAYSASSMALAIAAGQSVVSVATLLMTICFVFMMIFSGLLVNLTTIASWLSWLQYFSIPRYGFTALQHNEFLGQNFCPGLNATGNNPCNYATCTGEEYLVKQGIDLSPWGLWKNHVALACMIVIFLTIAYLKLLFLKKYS
- ASSAY COMMENT: TP_TRANSPORTER: efflux of Hoechst33342 in BCRP-expressing Sf9 cells
ATTRIBUTE MEASURED: IC50

Qu. Entry under review: CC#CC(=O)Nc1ccc2ncnc(Nc3cccc(Br)c3)c2c1 . Reported IC50?
Ans. 200 nM
